# Nitrite assay % survival annotations
tested on: RAW 264.7 cells; assay: SRB cytotoxicity / cell survival under nitrite assay conditions; assay type: cell-based, murine; settings: 50 μM; cell survival in comparison with vehicle-treated controls; SRB
Report only the number, with the unit % understood.

Solved cases (3 shown):
Cc1ccccc1-c1cc2cc([N+](=O)[O-])ccc2[nH]1 [Compound 10bb, 5-Nitro-2-o-toyl-1H-indole]; 89.2
N#Cc1ccc2cc(-c3ccccc3)[nH]c2c1 [Compound 10ea, 6-Carbonitrile-2-phenyl-1H-indole]; 78.1
c1ccc(-c2cc3ccccc3[nH]2)cc1 [Compound 10aa, 2-phenyl-1H-indole]; 66.7

Kindly consider the entry below.
Ask | Please report the recorded Nitrite assay % survival for c1ccc(-c2cc3ccccc3[nH]2)cc1 [Compound 1, 2-phenylindole] .
Reply | 87.3
